Values from PubChem BioAssay AID1919014

Field: viability, T/C. Provide a value for each of the molecules that follow.
# Tested on: NCI-H1341 complex spheroids, percent test/control
# EXPERIMENTAL_DETAILS: Anticancer human tumor NCI-H1341 cell line growth inhibition [AhR];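 also: spheroids exposed to agents for seven days before readout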
# MEASUREMENT_CONDITIONS: second compound 0.1 µM; first compound 3.16 µM; stronger effect = lower value

{"MOLECULE": "O=C(C=Cc1cccc(S(=O)(=O)Nc2ccccc2)c1)NO + Cc1cncc(-c2nc(NCCc3c[nH]c4ccccc34)c3ncn(C(C)C)c3n2)c1", "TEST_TARGET": "NCI-H1341 complex spheroids, percent test/control", "viability, T/C": "5.29%"}
{"MOLECULE": "CC(C)c1c(-c2ccccc2)nc2c(C#N)c[nH]n2c1=O + Cc1ccccc1N=Nc1ccc(NC(=O)c2ccnn2C)c(C)c1", "TEST_TARGET": "NCI-H1341 complex spheroids, percent test/control", "viability, T/C": "81.7%"}
{"MOLECULE": "COc1cc(C2c3cc4c(cc3C(OC3OC5COC(C)OC5C(O)C3O)C3COC(=O)C23)OCO4)cc(OC)c1O (configuration not stated) + CC(CO)NC(=O)c1cc(-c2ccc(Cl)cc2)nn(-c2cnn(C)c2)c1=O", "TEST_TARGET": "NCI-H1341 complex spheroids, percent test/control", "viability, T/C": "44.8%"}
{"MOLECULE": "NS(=O)(=O)OCC1CC(n2ccc3c(NC4CCc5ccccc54)ncnc32)CC1O (configuration not stated) + Cc1cncc(-c2nc(NCCc3c[nH]c4ccccc34)c3ncn(C(C)C)c3n2)c1", "TEST_TARGET": "NCI-H1341 complex spheroids, percent test/control", "viability, T/C": "14%"}
{"MOLECULE": "COc1ccc([C@@H](O)c2cc(-c3ncnc4cc(N5CCOCC5)ccc34)c(F)cc2Cl)nn1 + Cc1ccccc1N=Nc1ccc(NC(=O)c2ccnn2C)c(C)c1", "TEST_TARGET": "NCI-H1341 complex spheroids, percent test/control", "viability, T/C": "19.3%"}
{"MOLECULE": "COc1cc(Nc2ncc3c(n2)-c2ccc(Cl)cc2C(c2c(F)cccc2OC)=NC3)ccc1C(=O)O + CC(CO)NC(=O)c1cc(-c2ccc(Cl)cc2)nn(-c2cnn(C)c2)c1=O", "TEST_TARGET": "NCI-H1341 complex spheroids, percent test/control", "viability, T/C": "28.7%"}

Turning to the following molecule.
For COc1cc(C2c3cc4c(cc3C(OC3OC5COC(C)OC5C(O)C3O)C3COC(=O)C23)OCO4)cc(OC)c1O (configuration not stated) + Cc1ccccc1N=Nc1ccc(NC(=O)c2ccnn2C)c(C)c1 , what is its reported viability, T/C? 46.3%
